Where do these numbers come from? They come from the supplement of paper PMC7125110.

B1: glmS ribozyme (parent)
chain: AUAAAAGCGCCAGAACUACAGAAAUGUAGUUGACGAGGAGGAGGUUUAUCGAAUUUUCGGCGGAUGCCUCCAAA

Variants of: B1
protocol: self-cleavage kobs at 2500 uM GlcN6P; higher = faster cleavage; RNA array
measurement-setup: with glucosamine-6-phosphate
Variants at the floor of the assay were thinned out.
measured-parameter: self-cleavage kobs at 2500 uM GlcN6P (s⁻¹)
One number for each entry, in s⁻¹.

# variant-description, quantitative-result
rows = [
    ("A14G C68U", 0.00412),
]

Answer with the recorded self-cleavage kobs at 2500 uM GlcN6P of A53G A64G C67G only.
0.000335
